Where do the numbers come from? From patent US20250213713A1.

# Test system: NCI-N87 cells
# method notes: Inhibition of in vitro proliferation of tumor cells (CTG), NCI-N87
# Assay type: cell-based
# test parameters: read-out: NCI-N87 IC50; Table 8, 6 days of culture
measured property: pIC50
Scale note: pIC50 = -log10(concentration in M).

CC[C@@]1(O)C(=O)OCc2c1cc1n(c2=O)Cc2c-1nc1cc(F)c(C)c3c1c2[C@@H](NC(=O)CCS)CC3    6.96

Please examine the following record next.
I'd like to know its pIC50. The compound in question is CC[C@@]1(O)C(=O)OCc2c1cc1n(c2=O)Cc2c-1nc1cc(F)c(C)c3c1c2[C@@H](NC(=O)CC(C)(C)O)CC3
8.32
